Entry source: the Human Domainome abundance scans (Beltran et al. 2025)

B1: Chromodomain-helicase-DNA-binding protein 7, residues 2564 to 2605; numbered along this chain, Q9P2D1 (parent)
chain: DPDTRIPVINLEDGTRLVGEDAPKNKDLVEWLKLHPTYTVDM

- Variants of: B1
- procedure_text: abundance fitness (aPCA) (normalised: wild type 0, dead -1); higher = more abundant; growth selection in yeast, the domain comes from the species named
- measurement_parameters: Homo sapiens
attribute_measured: abundance fitness

In [3]: df
Out[3]:
    variant_descriptor  attribute_measured  recorded_value
 0                E20I   abundance fitness          -0.208
 1                K26L   abundance fitness          -0.559
 2                D21W   abundance fitness          -0.442
 3                E30S   abundance fitness          -0.023
 4                V29P   abundance fitness           0.063
 5                E20R   abundance fitness          -0.189
 6                G14L   abundance fitness          -0.424
 7                L28P   abundance fitness          -0.568
 8                K26R   abundance fitness          -0.081
 9                V40F   abundance fitness           -0.59
10                 P2Q   abundance fitness           0.182
